Numbers sourced from the RepoRT retention time repository.

assay: HILIC, Waters ACQUITY UPLC BEH Amide, 100 × 2.1 mm, 1.7 µm; A: water + 0.125% formic acid + 10 mM ammonium formate; B: 5% water + 95% acetonitrile + 0.125% formic acid + 10 mM ammonium formate; gradient (min/%B) 0/100 2/100 7.7/70 9.5/40 10.25/30 12.75/100 17/100
settings: stereoisomer not certain
measured_quantity: LC retention time (min)

Examples with their reported LC retention time follow.
{"compound": "CCCc1nc(C(C)(C)O)c(C(=O)O)n1Cc1ccc(-c2ccccc2-c2nn[nH]n2)cc1 [Olmesartan]", "LC retention time, min": 4.76}
{"compound": "OCC1OC(n2cnc3c(NC4CCCC4)nc(Cl)nc32)C(O)C1O (centres undefined) [2-Chloro-N6-cyclopentyladenosine]", "LC retention time, min": 1.47}
{"compound": "CC12CCC3C(CCC4CC(O)CCC43C)C1CCC2=O (centres undefined) [Androsterone]", "LC retention time, min": 4.62}
{"compound": "CC12Cc3cn[nH]c3CC1CCC1C2CCC2(C)C1CCC2(C)O (centres undefined) [Stanozolol]", "LC retention time, min": 1.19}

A: O=C(O)C1CC(O)CN1 (centres undefined) [Hydroxyproline]
B: CCC=CCC1C(=O)CCC1CC(=O)OC (centres undefined) [Methyl jasmonate]
C: O=c1ccn(C2OC(CO)C(O)C2O)c(=S)[nH]1 (centres undefined) [2-Thiouridine]
D: O=c1ccc2cccc(O)c2[nH]1 [2,8-Quinolinediol]
E: Cn1c(=O)[nH]c2[nH]c(=O)n(C)c2c1=O [1,7-Dimethyluric acid]
Your job: order these 5 records by LC retention time, ascending. As an answer, provide the labels arranged in the order called for. B, D, C, E, A
(B: 1.04 min, D: 1.53 min, C: 2.48 min, E: 4.09 min, A: 8.14 min)

1: OCC1OC(OC2(CO)OC(CO)C(O)C2O)C(O)C(O)C1O (centres undefined) [Sucrose]
2: CC(=O)OC1CC(C)(C)C(=C=CC(C)=CC=CC(C)=CC=CC=C(C)C=CC=C(C)C(=O)CC23OC2(C)CC(O)CC3(C)C)C(C)(O)C1 (centres undefined) [Fucoxanthin]
Return label of the item with the larger LC retention time. Candidates: 1 , 2 . Please respond with the label that marks your chosen entry. 1
(1: 8.05 min, 2: 1.07 min)

a: CC1OC(OC2C(CO)OC(OC3C(CO)OC(O)C(O)C3O)C(O)C2O)C(O)C(O)C1NC1C=C(CO)C(O)C(O)C1O (centres undefined) [Acarbose]
b: O=CCC(O)C(O)CO (centres undefined) [2-Deoxyribose]
c: CC(C)Oc1ccc2c(=O)c(-c3ccccc3)coc2c1 [Ipriflavone]
d: Cc1cn(C2OC(CO)CC2O)c(=O)[nH]c1=O (centres undefined) [5-Methyl-3-deoxyuridine]
I would appreciate it if you could sort these 4 compounds by LC retention time, starting from the smallest number. Give the labels in the order requested. c, b, d, a

----------
assay: HILIC, Waters ACQUITY UPLC BEH Amide, 100 × 2.1 mm, 1.7 µm; A: water + 0.125% formic acid + 10 mM ammonium formate; B: 5% water + 95% acetonitrile + 0.125% formic acid + 10 mM ammonium formate; gradient (min/%B) 0/100 2/100 7.7/70 9.5/40 10.25/30 12.75/100 17/100
settings: stereoisomer not certain
measured_quantity: LC retention time (min)

Look over these answered cases.
{"molecule": "CC(C)(O)C1C2OC(=O)C1C1(O)CC3OC34C(=O)OC2C14C (stereo not drawn) [Picrotin]", "LC retention time [min]": 1.21}
{"molecule": "C#CC1(O)CCC2C3CCC4=CC(=O)CCC4C3CCC21CC (stereo not drawn) [Levonorgestrel]", "LC retention time [min]": 0.99}
{"molecule": "CSCCC(N)C(=O)O (stereo not drawn) [Methionine]", "LC retention time [min]": 7.37}
{"molecule": "Cc1cn(C2CC(O)C(COP(=O)(O)O)O2)c(=O)[nH]c1=O (stereo not drawn)", "LC retention time [min]": 8.28}
{"molecule": "Cn1cncc1CC(N)C(=O)O (stereo not drawn) [3-Methylhistidine]", "LC retention time [min]": 9.41}
{"molecule": "CC1OC(OCC2OC(Oc3c(-c4ccc(O)cc4)oc4cc(O)cc(O)c4c3=O)C(O)C(O)C2O)C(O)C(O)C1O (stereo not drawn) [Kaempferol-3-O-rutinoside]", "LC retention time [min]": 6.09}
{"molecule": "O=c1ccn(C2CC(O)C(CO)O2)c(=O)[nH]1 (stereo not drawn) [2-Deoxyuridine]", "LC retention time [min]": 2.96}
{"molecule": "CC(=O)C1CCC2C3CCC4=CC(=O)CCC4(C)C3CCC12C (stereo not drawn) [Progesterone]", "LC retention time [min]": 0.97}

P: CC(Cc1ccccc1)(NC(=O)CN)c1ccccc1 (stereo not drawn) [Remacemide]
Q: CCCCCCCCCCCCCC(=O)OC(CO)CO [2-Myristoylglycerol]
Between the entries labeled P and Q , whose measured LC retention time is lower? Respond with the label that goes with your answer. Q
(Q: 1.01 min, P: 4.41 min)
